- Assay procedure: Pharmacokinetic study, IV and PO, plasma, brain and liver
- Format: in vivo, mouse
- Condition info: male, C57BL/6J, mouse, plasma, iv, 10 mg/kg, IV 10 mg/kg, 30 min; read-out: Plasma concentration, Mean
Reported property: concentration at 30 min (ng/mL)
State just the number; it will be interpreted in ng/mL.

Reported concentration at 30 min of `Cc1ccc(-c2cn3cccc(C)c3n2)cc1S(=O)(=O)N1CCNCC1` : 432

* * *

- Assay procedure: Pharmacokinetic study, IV and PO, plasma, brain and liver
- Format: in vivo, mouse
- Condition info: male, C57BL/6J, mouse, liver, po, 50 mg/kg, PO 50 mg/kg, 60 min; read-out: Liver concentration, Mean
Reported property: concentration at 60 min

Reported concentration at 60 min of `Cc1ccc(-c2cn3cccc(C)c3n2)cc1S(=O)(=O)N1CCNCC1` : 28000 ng/g

* * *

- Assay procedure: Pharmacokinetic study, IV and PO, plasma, brain and liver
- Type: in vivo, mouse
- Condition info: male, C57BL/6J, mouse, plasma, po, 50 mg/kg, PO 50 mg/kg, 15 min; read-out: Plasma concentration, Mean
- Protocol: The purpose of this study was to determine the pharmacokinetic characteristics of compound NG-537 in C57BL/6J mice following intravenous (IV) and peroral (PO) administration. Levels of NG-537 were determined in blood plasma , brain and liver over time after a single dose . 3.1 Reagents and consumables […] Solution of compound Thiamethoxam (400 ng/ml in water-methanol mixture 1:9, v/v) was used as internal standard (IS) for quantification of NG-537 in plasma samples. […]
Reported property: concentration at 15 min (ng/mL)
State just the number; it will be interpreted in ng/mL.

Reported concentration at 15 min of Cc1ccc(-c2cn3cccc(C)c3n2)cc1S(=O)(=O)N1CCNCC1 [YB-537] : 2030

* * *

- Assay procedure: Pharmacokinetic study, IV and PO, plasma, brain and liver
- Assay type: in vivo, mouse
- Condition info: male, C57BL/6J, mouse, liver, po, 50 mg/kg, PO 50 mg/kg, 240 min; read-out: Liver concentration, Mean
Reported property: concentration at 240 min (ng/g)
State just the number; it will be interpreted in ng/g.

Reported concentration at 240 min of `Cc1ccc(-c2cn3cccc(C)c3n2)cc1S(=O)(=O)N1CCNCC1` : 3900

* * *

- Assay procedure: Pharmacokinetic study, IV and PO, plasma, brain and liver
- Assay type: in vivo, mouse
- Condition info: male, C57BL/6J, mouse; plasma, IV 10 mg/kg; read-out: AUC0→t=60min (AUClast) (converted)
Reported property: AUC(0-t) (ng·h/mL)
State just the number; it will be interpreted in ng·h/mL.

Reported AUC(0-t) of `Cc1ccc(-c2cn3cccc(C)c3n2)cc1S(=O)(=O)N1CCNCC1` : 790

* * *

- Assay procedure: Pharmacokinetic study, IV and PO, plasma, brain and liver
- Assay type: in vivo, mouse
- Condition info: male, C57BL/6J, mouse, plasma, po, 50 mg/kg, PO 50 mg/kg, 30 min; read-out: Plasma concentration, Mean
Reported property: concentration at 30 min (ng/mL)
State just the number; it will be interpreted in ng/mL.

Reported concentration at 30 min of `Cc1ccc(-c2cn3cccc(C)c3n2)cc1S(=O)(=O)N1CCNCC1` : 1720
